- TGT: B^0AT2/SLC6A15 (eGFP-hSLC6A15) (Homo sapiens, UniProt Q9H2J7)
- Sequence (Q9H2J7 whole entry): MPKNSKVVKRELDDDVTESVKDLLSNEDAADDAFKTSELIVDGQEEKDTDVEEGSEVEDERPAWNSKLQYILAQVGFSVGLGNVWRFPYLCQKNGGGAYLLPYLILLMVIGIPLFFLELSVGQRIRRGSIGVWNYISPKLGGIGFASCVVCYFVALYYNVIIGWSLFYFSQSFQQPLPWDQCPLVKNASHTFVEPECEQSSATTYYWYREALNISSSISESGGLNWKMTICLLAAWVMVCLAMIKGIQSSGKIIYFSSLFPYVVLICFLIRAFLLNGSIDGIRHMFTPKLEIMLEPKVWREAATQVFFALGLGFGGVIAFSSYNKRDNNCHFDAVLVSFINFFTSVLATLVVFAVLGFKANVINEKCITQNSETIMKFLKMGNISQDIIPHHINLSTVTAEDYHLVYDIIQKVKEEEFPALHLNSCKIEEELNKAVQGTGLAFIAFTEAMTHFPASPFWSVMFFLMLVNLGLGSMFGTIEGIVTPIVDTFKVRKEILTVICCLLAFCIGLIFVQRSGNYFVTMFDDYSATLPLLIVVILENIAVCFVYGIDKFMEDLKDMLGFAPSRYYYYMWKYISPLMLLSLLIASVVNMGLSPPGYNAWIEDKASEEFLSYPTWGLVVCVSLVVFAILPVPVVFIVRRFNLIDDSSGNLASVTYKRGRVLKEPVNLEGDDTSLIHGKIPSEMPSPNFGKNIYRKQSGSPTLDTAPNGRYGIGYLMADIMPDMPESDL
- ASSAY COMMENT: cell-based
- Design: species or system HEK293 eGFP-hSLC6A15
- CONDITIONS USED: read-out: B^0AT2 IC50; inhibitor
ATTRIBUTE MEASURED: IC50

Prompt: Entry CCOc1cc(C2C3=C(CCCC3=O)Nc3ccccc3N2C(=O)CC)ccc1O (stereo not shown) [13b] : reported IC50 = ?
Completion: > 80 µM

---

- Test system: NTT4/SLC6A17 (NTT4-B^0AT2 chimera)
- ASSAY COMMENT: 3H-proline uptake inhibition, HEK293, 384-well
- Format: cell-based
- CONDITIONS USED: blanket statement for all 1,5-benzodiazepine analogs
pIC50: −log10 of the molar value.
ATTRIBUTE MEASURED: pIC50

Prompt: Entry CC1(C)CC(=O)C2=C(C1)Nc1ccccc1N(C(=O)c1ccccc1)C2c1ccc2c(c1)OCO2 (stereo not drawn) [11x] : reported pIC50 = ?
Completion: < 4.10

Prompt: Proceed to COc1cc(C2C3=C(CC(C)(C)CC3=O)Nc3ccccc3N2C(=O)c2ccccc2)ccc1O (stereo not drawn) [11v]
Completion: < 4.10

Prompt: Now give it for COc1ccc(C2C3=C(CC(c4ccco4)CC3=O)Nc3ccccc3N2C(=O)c2ccccc2)cc1 (stereo not drawn) [14d] too.
Completion: < 4.10

---

- TGT: B^0AT2/SLC6A15 (AAV mouse SLC6A15 in primary hippocampal neurons) (Mus musculus)
- Sequence (Q8BG16 1-729): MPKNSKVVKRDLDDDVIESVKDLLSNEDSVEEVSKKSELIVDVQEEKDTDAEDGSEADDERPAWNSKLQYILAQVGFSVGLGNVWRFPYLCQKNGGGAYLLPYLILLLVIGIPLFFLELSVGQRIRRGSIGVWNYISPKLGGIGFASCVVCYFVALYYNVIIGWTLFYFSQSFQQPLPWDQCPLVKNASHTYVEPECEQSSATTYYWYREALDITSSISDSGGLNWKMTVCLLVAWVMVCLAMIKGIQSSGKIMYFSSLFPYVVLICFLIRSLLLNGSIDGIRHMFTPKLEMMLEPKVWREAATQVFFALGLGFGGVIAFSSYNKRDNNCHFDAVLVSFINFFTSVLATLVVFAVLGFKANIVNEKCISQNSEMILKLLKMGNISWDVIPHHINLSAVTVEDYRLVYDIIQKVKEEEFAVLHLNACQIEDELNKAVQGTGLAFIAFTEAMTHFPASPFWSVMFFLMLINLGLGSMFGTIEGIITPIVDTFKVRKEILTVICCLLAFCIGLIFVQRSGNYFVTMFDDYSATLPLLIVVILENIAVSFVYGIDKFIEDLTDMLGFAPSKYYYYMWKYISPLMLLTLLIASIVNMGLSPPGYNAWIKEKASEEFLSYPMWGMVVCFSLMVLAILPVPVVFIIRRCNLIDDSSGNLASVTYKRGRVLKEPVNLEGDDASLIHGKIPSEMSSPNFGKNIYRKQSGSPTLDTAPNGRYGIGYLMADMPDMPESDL
- ASSAY COMMENT: 3H-proline uptake inhibition, AAV-transduced primary hippocampal neurons
ATTRIBUTE MEASURED: IC50

Prompt: Entry COc1ccc(C2C3=C(CC(C)CC3=O)Nc3ccccc3N2C(=O)c2ccccc2)cc1 (stereo not shown) [14c] : reported IC50 = ?
Completion: 1 µM

---

- TGT: B^0AT2/SLC6A15 (eGFP-hSLC6A15) (Homo sapiens)
- ASSAY COMMENT: cell-based
- Parameters: species or system HEK293 eGFP-hSLC6A15
Listed here: items and their measured pIC50.
Please treat pIC50 as minus the base-10 logarithm of the molar concentration.

Answered cases to consult:
[
  {
    "MOLECULE": "CC1(C)CC(=O)C2=C(C1)Nc1ccccc1N(C(=O)c1ccccc1)C2c1cccc(F)c1 (stereo not drawn) [11o]",
    "TGT": "B^0AT2/SLC6A15 (eGFP-hSLC6A15) (Homo sapiens)",
    "pIC50": 4.64
  },
  {
    "MOLECULE": "CC1(C)CC(=O)C2=C(C1)Nc1ccccc1N(C(=O)c1ccccc1)C2c1ccc(Cl)cc1 (stereo not drawn) [11c]",
    "TGT": "B^0AT2/SLC6A15 (eGFP-hSLC6A15) (Homo sapiens)",
    "pIC50": 6.05
  },
  {
    "MOLECULE": "CC1(C)CC(=O)C2=C(C1)Nc1ccccc1N(C(=O)c1ccccc1)C2c1ccc2c(c1)OCO2 (stereo not drawn) [11x]",
    "TGT": "B^0AT2/SLC6A15 (eGFP-hSLC6A15) (Homo sapiens)",
    "pIC50": 6.10
  },
  {
    "MOLECULE": "CCOc1ccc(C2C3=C(CC(C)(C)CC3=O)Nc3ccccc3N2C(=O)c2ccccc2)cc1 (stereo not drawn) [11g]",
    "TGT": "B^0AT2/SLC6A15 (eGFP-hSLC6A15) (Homo sapiens)",
    "pIC50": 6.30
  },
  {
    "MOLECULE": "CC1(C)CC(=O)C2=C(C1)Nc1ccccc1N(C(=O)c1ccccc1)C2c1ccc(Cl)c(Cl)c1 (stereo not drawn) [11z]",
    "TGT": "B^0AT2/SLC6A15 (eGFP-hSLC6A15) (Homo sapiens)",
    "pIC50": 5.64
  },
  {
    "MOLECULE": "COc1ccc(C2C3=C(CC(C)(C)CC3=O)Nc3ccccc3N2C(=O)c2ccccc2)cc1OC (stereo not drawn) [11w]",
    "TGT": "B^0AT2/SLC6A15 (eGFP-hSLC6A15) (Homo sapiens)",
    "pIC50": 5.15
  }
]

Prompt: Form field - read-out: pIC50; system: B^0AT2/SLC6A15 (eGFP-hSLC6A15) (Homo sapiens); submitted item: COc1cc(C2C3=C(CC(C)(C)CC3=O)Nc3ccccc3N2C(=O)c2ccccc2)cc(OC)c1OC (stereo not drawn) [11ab]
Completion: 4.95

Prompt: Likewise for CCCCOc1ccc(C2C3=C(CC(C)(C)CC3=O)Nc3ccccc3N2C(=O)c2ccccc2)cc1 (stereo not drawn) [11i] ?
Completion: 6.24

Prompt: Moving on to CC1(C)CC(=O)C2=C(C1)Nc1ccccc1N(C(=O)c1ccccc1)C2c1ccccc1F (stereo not drawn) [11s]
Completion: 4.70

Prompt: Do the same for CN(C)c1ccc(C2C3=C(CC(C)(C)CC3=O)Nc3ccccc3N2C(=O)c2ccccc2)cc1 (stereo not drawn) [11l] please
Completion: 4.97

---

- TGT: B^0AT2/SLC6A15 (eGFP-hSLC6A15) (Homo sapiens)
- ASSAY COMMENT: cell-based
- Set-up: species or system HEK293 eGFP-hSLC6A15
Threshold 3 µM. IC50 below it: T. IC50 at it or above: F.

See these solved cases before continuing.
[
  {
    "COMPOUND": "Cn1cccc1C1C2=C(CC(C)(C)CC2=O)Nc2ccccc2N1C(=O)c1ccccc1 (centres unmarked) [12g]",
    "CLASS LABEL": "F"
  },
  {
    "COMPOUND": "O=C1CCCC2=C1C(c1cccnc1)N(C(=O)c1ccccc1)c1ccccc1N2 (centres unmarked) [12a]",
    "CLASS LABEL": "T"
  },
  {
    "COMPOUND": "CC1(C)CC(=O)C2=C(C1)Nc1ccccc1N(C(=O)c1ccccc1)C2c1cccnc1 (centres unmarked) [12c]",
    "CLASS LABEL": "T"
  }
]

Prompt: is_below(IC50, 3 µM) for CC1(C)CC(=O)C2=C(C1)Nc1ccccc1N(C(=O)c1ccccc1)C2c1ccco1 (centres unmarked) [12e] ?
Completion: T

Prompt: Same question, O=C1CCCC2=C1C(c1ccco1)N(C(=O)c1ccccc1)c1ccccc1N2 (centres unmarked) [12b] this time
Completion: F

Prompt: For CC1(C)CC(=O)C2=C(C1)Nc1ccccc1N(C(=O)c1ccccc1)C2c1c[nH]c2ccccc12 (centres unmarked) [12h] then?
Completion: F

Prompt: # repeat for CC1(C)CC(=O)C2=C(C1)Nc1ccccc1N(C(=O)c1ccccc1)C2c1ccccn1 (centres unmarked) [12d]
Completion: F

Prompt: Then this compound: Cc1ccc(C2C3=C(CC(C)(C)CC3=O)Nc3ccccc3N2C(=O)c2ccccc2)o1 (centres unmarked) [12f]
Completion: T

---

Recorded IC50 by entry
- TGT: B^0AT2/SLC6A15 (eGFP-hSLC6A15) (Homo sapiens, UniProt Q9H2J7)
- ASSAY COMMENT: cell-based
- Design: species or system HEK293 eGFP-hSLC6A15

Recorded results for 2 compounds are shown here.
[
  {
    "COMPOUND": "COc1ccc(C2CC(=O)C3=C(C2)Nc2ccccc2N(C(=O)c2ccccc2)C3c2cccc(OC)c2)cc1 (stereo not drawn) [14i]",
    "TGT": "B^0AT2/SLC6A15 (eGFP-hSLC6A15) (Homo sapiens, UniProt Q9H2J7)",
    "IC50": "> 80 µM"
  },
  {
    "COMPOUND": "COc1cccc(C2C3=C(CC(c4ccccc4)CC3=O)Nc3ccccc3N2C(=O)c2ccccc2)c1 (stereo not drawn) [14h]",
    "TGT": "B^0AT2/SLC6A15 (eGFP-hSLC6A15) (Homo sapiens, UniProt Q9H2J7)",
    "IC50": "> 80 µM"
  }
]

Prompt: // returns reported IC50 for input Cc1ccc(C2C3=C(CC(c4ccccc4F)CC3=O)Nc3ccccc3N2C(=O)c2ccccc2)cc1 (stereo not drawn) [14l]
Completion: > 80 µM

The reported measurements were obtained from paper doi:10.1101/2025.03.25.645215v1.
